Tested on: LOX IMVI melanoma
method: NCI-60 one-dose screen, 48 h (100 = growth as untreated, 0 = no growth, -100 = all killed)
study conditions: 10 µM unless noted
The panel holds about 83,000 compounds, 20% with a hit somewhere; the sample as a whole holds those more often.
parameter measured: growth (%)
// return numeric value only (unit: %, not printed)

# compound `C=CC(=O)Nc1ccc(C(=O)/C=C/c2ccc(N(C)C)cc2)c(O)c1` ; its growth = -60.3

Entry `C=CC[n+]1cccc2c3ccccc3ccc21` ; growth = 61.8

The compound `COc1ccc(NC(=O)CSc2nnc(-c3ccc(-c4nc5ccccc5[nH]4)cc3)o2)cc1` showed growth equal to -63.9

Kindly note the recorded growth for `O=C1Nc2cc(-c3ccc(NS(=O)(=O)c4ccc(C(F)(F)F)cc4)cc3)ccc2/C1=C/c1ccc[nH]1` , which is 46.1

Form field growth, entry `O=C(Cn1c(-c2ccccc2)nc2ccccc21)N=Nc1c(O)[nH]c2ccc(Br)cc12` : -24.7

---

System: SF-268 CNS
method: NCI-60 one-dose screen, 48 h (100 = growth as untreated, 0 = no growth, -100 = all killed)
study conditions: 10 µM unless noted
This is part of a sample that, as a whole, favours compounds with a hit. Of some 83,000 tested, about 20% had one in any assay.
parameter measured: growth (%)
Hi! Could you send only the number? It should be in %, unit omitted.

Looking up `Cn1cc(-c2cc3nc(-c4cn(C)c5ncccc45)cc(N)n3n2)c2cc(F)ccc21` , I see its growth listed as 52.3

growth reported for this compound `COC(=O)c1cccc(Oc2ccc(NC(=O)Nc3cc(C(F)(F)F)ccc3F)cc2)c1` : 50.2

growth in this record for CCC1(OC(=O)c2ccccc2SSCCOC(=O)CCCCC2SCC3NC(=O)NC32)C(=O)OCc2c1cc1n(c2=O)Cc2cc3ccccc3nc2-1 (centres undefined) : 38.5

# growth of `COc1ccc(NC(=O)Cn2c(/C=C/c3cccc(Br)c3)nc3ccccc3c2=O)cc1` = 65.2

Lab note: measured growth of `CN1CCN(C(=O)CCN(C(=O)Oc2cc3c(c4ccccc24)[C@H](CCl)CN3C(=O)c2cc3cc(OCCCN4CCC4)ccc3[nH]2)[C@H]2CCSSC2)CC1` was -50.4

The reported value for `Nc1cc(-c2c[nH]c3ccc(Cl)cc23)nc2cc(-c3c[nH]c4ccccc34)nn12` in terms of growth is 9.75

For this compound ( `O=C(N/N=C/c1ccoc1)c1[nH]c2ccc(Br)cc2c1-c1ccccc1` ), measured growth is -56.8

Looking up `C[C@@H](Nc1c(C#N)cnc2ccc(-c3cnc4[nH]ncc4c3)cc12)c1ccccc1` , I see its growth listed as 25.7

So, `N/C(=N\c1nc2ccc([N+](=O)[O-])cc2s1)NC(=O)Nc1ccccc1Cl` ? Its growth was 56.1

---

Tested on: MDA-MB-435 melanoma
method: NCI-60 one-dose screen, 48 h (100 = growth as untreated, 0 = no growth, -100 = all killed)
study conditions: 10 µM unless noted
Compounds without any hit were thinned out: in the full panel of roughly 83,000, 20% have a hit.
Class key for growth values: lowest (below 10%), middle (10% to below 80%), highest (80% or more)

The entry to classify is `Nc1cc(-c2c[nH]c3ccc(Br)cc23)nc2cc(-c3c[nH]c4ccccc34)nn12` ; which class holds it?
lowest

Please let me know in which category the item CC1CCc2c(sc3nc(SCC(=O)c4cccc([N+](=O)[O-])c4)n(-c4ccccc4)c(=O)c23)C1 (centres undefined) belongs.
highest

For this compound, which bin applies? `C[C@H](NC(=O)c1ccc2c(-c3ccc(C(F)(F)F)cc3)cccc2c1)c1ccccn1`
middle

Classify this compound: `COc1ccc(-c2cc(C(=O)Oc3ccc(C=O)cc3OC)nn2-c2ccc(S(C)(=O)=O)cc2)cc1`
highest

Which bin should I file `O=C1Nc2cc(-c3ccc(NS(=O)(=O)c4ccc([N+](=O)[O-])cc4)cc3)ccc2/C1=C/c1ccc[nH]1` under?
lowest

Kindly state the category for this compound: CCOc1ccc2[nH]c(=O)c(C(c3nnnn3CC3CCCO3)N3CCN(Cc4ccccc4)CC3)cc2c1 (centres undefined)
highest

The entry to classify is Cc1nc(Nc2ccccn2)sc1C1=NNC(c2ccccc2F)C1 (centres undefined) ; which class holds it?
lowest

Textbook exercise: identify the category of the compound given here, `COc1cc2cc(C(=O)N3C[C@@H](CCl)c4c3cc(OC(=O)N(CCC(=O)N3CCN(C)CC3)C3CCCCC3)c3ccccc43)[nH]c2c(OC)c1OC` , according to its measured value.
lowest

The entry to classify is `FC(F)(F)CN1CCN(CCn2c(C(F)(F)F)cc3c(Cl)ncnc32)CC1` ; which class holds it?
middle

Just checking, what class would you give `O=C(Nc1ccc(Br)cc1)Nc1ccc(-c2ccc3c(c2)NC(=O)/C3=C\c2ccc[nH]2)cc1` here?
middle

Bin this entry: `CS(=O)(=O)Nc1cccc(-n2cnc3cc(-c4ccc(O)cc4)ccc32)c1`
lowest

Which band does `Cc1ccc(-c2cc(-c3ccccc3)[nH]c(=O)c2C#N)cc1` fall in?
highest

Please report the category associated with O=C(c1ccc(O)cc1)C1[C@H](c2ccccc2Br)[C@@H](c2ccccc2)NC12C(=O)Nc1ccccc12 (some centres undefined) , nothing else.
middle

Lab note: sort `CCCCCCCCc1ccc(C(=O)Nc2ccc(C)cc2C(=O)O)cc1` into the matching growth band.
highest

Note: place this compound into its band. Item: `COc1cc(CNC(=O)C[C@H](C)CCC=C(C)C)ccc1OCc1cn(-c2ccc(Cl)c(Cl)c2)nn1`
highest

Exercise: read the entry `COc1ccc(NC2=C(I)C(=O)C(C)=C(C)C2=O)cc1` and state which class it falls under.
lowest

State the class of the compound shown: `FC(F)(F)c1cc2c(Cl)ncnc2n1CCN1CCCCC1`
middle

Band for the recorded growth of N#CC1=C(c2cccs2)Nc2c(c(-c3ccccc3)nn2-c2ccccc2)C12C(=O)Nc1ccccc12 (centres undefined) ?
middle
